# EXPERIMENT NOTES: Ex vivo biodistribution and tumor targeting
# CONDITION DESCRIPTION: female, BALB/c nu/nu, mouse, stomach, iv, 45 pmol per mouse, total radioactivity, Stomach uptake, PC-3-xenografted BALB/c nu/nu mice, iv 25 kBq/45 pmol, 3 h pi, 4 mice per data point
Field: tissue uptake at 3 h. Provide a value for each of the compounds that follow.
Report the figure in %ID/g without appending any unit label.

Just so you know, measured tissue uptake at 3 h for CC(C)C[C@H](NC(=O)C[C@H](O)[C@H](CC(C)C)NC(=O)[C@H](Cc1c[nH]cn1)NC(=O)CNC(=O)[C@@H](NC(=O)[C@H](C)NC(=O)[C@H](Cc1c[nH]c2ccccc12)NC(=O)[C@H](CCC(N)=O)NC(=O)[C@@H](Cc1ccccc1)NC(=O)COCCOCCNC(=O)CCC(C(=O)O)N1CCN(CC(=O)O)CCN(CC(=O)O)CCN(CC(=O)O)CC1)C(C)C)C(N)=O (stereo partly shown) came out at 0.4

Just so you know, measured tissue uptake at 3 h for CC(C)C[C@H](NC(=O)C[C@H](O)[C@H](CC(C)C)NC(=O)[C@H](Cc1c[nH]cn1)NC(=O)CNC(=O)[C@@H](NC(=O)[C@H](C)NC(=O)[C@H](Cc1c[nH]c2ccccc12)NC(=O)[C@H](CCC(N)=O)NC(=O)[C@@H](Cc1ccccc1)NC(=O)COCCOCCNC(=O)CCC(C(=O)O)N1CCN(CC(=O)O)CCN(CC(=O)O)CC1)C(C)C)C(N)=O (stereo partly shown) came out at 0.39

Just so you know, measured tissue uptake at 3 h for CC(C)C[C@H](NC(=O)C[C@H](O)[C@H](CC(C)C)NC(=O)[C@H](Cc1c[nH]cn1)NC(=O)CNC(=O)[C@@H](NC(=O)[C@H](C)NC(=O)[C@H](Cc1c[nH]c2ccccc12)NC(=O)[C@H](CCC(N)=O)NC(=O)[C@@H](Cc1ccccc1)NC(=O)COCCOCCNC(=O)CN1CCN(CC(=O)O)CCN(CC(=O)O)CCN(CC(=O)O)CC1)C(C)C)C(N)=O came out at 2.1

Just so you know, measured tissue uptake at 3 h for CC(C)C[C@H](NC(=O)C[C@H](O)[C@H](CC(C)C)NC(=O)[C@H](Cc1c[nH]cn1)NC(=O)CNC(=O)[C@@H](NC(=O)[C@H](C)NC(=O)[C@H](Cc1c[nH]c2ccccc12)NC(=O)[C@H](CCC(N)=O)NC(=O)[C@@H](Cc1ccccc1)NC(=O)COCCOCCNC(=O)CN1CCN(CC(=O)O)CCN(CC(=O)O)CC1)C(C)C)C(N)=O came out at 0.3

###

# EXPERIMENT NOTES: Ex vivo biodistribution and tumor targeting
# CONDITION DESCRIPTION: female, BALB/c nu/nu, mouse, blood, iv, 45 pmol per mouse, total radioactivity, Blood uptake, PC-3-xenografted BALB/c nu/nu mice, iv 25 kBq/45 pmol, 3 h pi, 4 mice per data point
Field: tissue uptake at 3 h. Provide a value for each of the molecules that follow.
Report the figure in %ID/g without appending any unit label.

Just so you know, measured tissue uptake at 3 h for CC(C)C[C@H](NC(=O)C[C@H](O)[C@H](CC(C)C)NC(=O)[C@H](Cc1c[nH]cn1)NC(=O)CNC(=O)[C@@H](NC(=O)[C@H](C)NC(=O)[C@H](Cc1c[nH]c2ccccc12)NC(=O)[C@H](CCC(N)=O)NC(=O)[C@@H](Cc1ccccc1)NC(=O)COCCOCCNC(=O)CCC(C(=O)O)N1CCN(CC(=O)O)CCN(CC(=O)O)CC1)C(C)C)C(N)=O (stereo partly shown) came out at 0.032

Just so you know, measured tissue uptake at 3 h for CC(C)C[C@H](NC(=O)C[C@H](O)[C@H](CC(C)C)NC(=O)[C@H](Cc1c[nH]cn1)NC(=O)CNC(=O)[C@@H](NC(=O)[C@H](C)NC(=O)[C@H](Cc1c[nH]c2ccccc12)NC(=O)[C@H](CCC(N)=O)NC(=O)[C@@H](Cc1ccccc1)NC(=O)COCCOCCNC(=O)CN1CCN(CC(=O)O)CCN(CC(=O)O)CCN(CC(=O)O)CC1)C(C)C)C(N)=O came out at 0.028

Just so you know, measured tissue uptake at 3 h for CC(C)C[C@H](NC(=O)C[C@H](O)[C@H](CC(C)C)NC(=O)[C@H](Cc1c[nH]cn1)NC(=O)CNC(=O)[C@@H](NC(=O)[C@H](C)NC(=O)[C@H](Cc1c[nH]c2ccccc12)NC(=O)[C@H](CCC(N)=O)NC(=O)[C@@H](Cc1ccccc1)NC(=O)COCCOCCNC(=O)CCC(C(=O)O)N1CCN(CC(=O)O)CCN(CC(=O)O)CCN(CC(=O)O)CC1)C(C)C)C(N)=O (stereo partly shown) came out at 0.02

Just so you know, measured tissue uptake at 3 h for CC(C)C[C@H](NC(=O)C[C@H](O)[C@H](CC(C)C)NC(=O)[C@H](Cc1c[nH]cn1)NC(=O)CNC(=O)[C@@H](NC(=O)[C@H](C)NC(=O)[C@H](Cc1c[nH]c2ccccc12)NC(=O)[C@H](CCC(N)=O)NC(=O)[C@@H](Cc1ccccc1)NC(=O)COCCOCCNC(=O)CN1CCN(CC(=O)O)CCN(CC(=O)O)CC1)C(C)C)C(N)=O came out at 0.019
